Just for reference, patent US8697706B2 is where these values come from.

- System: HCV pseudoparticles (genotype 1a HCV E1 and E2 envelope, H77C isolate)
- Assay: microbe, parasite or virus in culture
- Assay type: cell-based, HCV genotype 1a (H77C isolate)
- Condition details: Hepatitis C virus, Huh-7, 48 h, HCV pseudoparticle entry into Huh7 cells, luciferase measured 2 days after infection; class symbol
pEC50: −log10 of the molar value.
Measured parameter: pEC50

[in] Record request: pEC50 value, item CC1(C)CNCCCOc2ccc(cc2)CNc2nc(cc(OCC(F)(F)F)n2)Nc2ccc(cc2)C(=O)NC1
[out] 6.00 to 7.00

[in] Record request: pEC50 value, item CC1(C)CNCCCOc2ccc(cc2)CNc2cc(OCC(F)(F)F)nc(n2)Nc2ccc(cc2)C(=O)NC1
[out] > 7.00
